Below, each entry is listed with its recorded TGI.
Test system: LOX IMVI melanoma
EXPERIMENTAL_PROTOCOL: NCI tumour cell line growth inhibition, 48 h
MEASUREMENT_LABEL: TGI

>>> result("CC(CCC=O)CCOCc1ccccc1 (stereo not given)")
"> 91.2 µM"
>>> result("Nc1ccc(Oc2ccc(C34CC5CC6C3CC3CC4C(C5)C6(c4ccc(Oc5ccc(N)cc5)cc4)C3)cc2)cc1")
"> 76.1 µM"
>>> result("CC(=O)c1cccc(NC(=O)C(=O)NNc2n[nH]c(=S)n2N)c1")
"4.57 µM"
>>> result("O=C(Nc1nc2ccc(C(F)(F)F)cc2s1)c1cc(Cl)ccc1O")
"15.8 µM"
>>> result("OCCCCCCCCCCCOc1ccc(C2OCC3(CO2)COC(c2ccc(OCCCCCCCCCCCO)cc2)OC3)cc1 (stereo not given)")
"> 50 µM"
>>> result("CC(C)(C)[Si](OC1CC(n2cnc3c(N)ncnc32)OC1CO)(c1ccccc1)c1ccccc1 (stereo not given)")
"31.7 µM"
>>> result("COc1ccc(/C=C(/C(=O)N2CCN(c3ccccc3)CC2)c2cc(OC)c(OC)c(OC)c2)cc1O")
"> 100 µM"
>>> result("COc1cc(C2SCC(=O)N2c2ccccn2)cc(OC)c1OC (stereo not given)")
"> 100 µM"
>>> result("O=c1cc(N2CCOCC2)[nH]c(=O)n1-c1ccc(F)cc1")
"> 100 µM"
>>> result("CC(C)c1ccccc1NC(=O)CCc1n[nH]c(=S)o1")
"> 100 µM"

====

Tested on: NCI/ADR-RES ovarian
EXPERIMENTAL_PROTOCOL: NCI tumour cell line growth inhibition, 48 h
MEASUREMENT_LABEL: TGI

>>> result("O=C(O)c1ccc(Nc2c3ccccc3nc3ccccc23)cc1")
"> 100 µM"
>>> result("C=C1CC[C@@H]2[C@](C)(COC(C)=O)[C@H](OC(C)=O)CC[C@@]2(C)[C@@H]1CC(Sc1ccccc1)C1=CCOC1=O (some centres undefined)")
"11 µM"
>>> result("O=C1NC(=O)C(c2cnc3ccccn23)=C1c1cn2c3c(cc(F)cc13)CN(C(=O)N1CCCCC1)CC2")
"> 100 µM"
>>> result("N=C1/C(=C/c2ccc(F)cc2)C(=O)N=C2SC=NN12")
"> 100 µM"

====

Tested on: DU-145 prostate
EXPERIMENTAL_PROTOCOL: NCI tumour cell line growth inhibition, 48 h
Below, each entry is listed with its recorded TGI.
MEASUREMENT_LABEL: TGI

>>> result("CC(C)(Br)C(Br)CCC1(C2CO2)CO1 (stereo not given)")
"> 5 µM"
>>> result("CC(O)CCC(=O)c1ccoc1 (stereo not given)")
"> 10000 µM"
>>> result("CCOC(=O)C1=C(C)N(Cc2ccc(Cl)cc2Cl)C2(O)C=CC(=O)C3C(=O)N(c4ccccc4)C(=O)C132 (stereo not given)")
"2.97 µM"
>>> result("O=C(C=P(c1ccccc1)(c1ccccc1)c1ccccc1)c1ccc(-c2cccc([N+](=O)[O-])c2)s1")
"> 100 µM"
>>> result("CCN(CC)CCC(CNc1ccnc2cc(Cl)ccc12)c1ccc(OC)cc1 (stereo not given)")
"> 100 µM"
>>> result("COC(=O)C1=C(C)NC2=C(C(=O)c3ccccc32)C1c1cn(-c2ccccc2)nc1-c1ccccc1 (stereo not given)")
"> 100 µM"
>>> result("O=C(O)CC1NC(/C(=C/c2ccccc2)NC(=O)c2ccccc2)OC1=O (stereo not given)")
"> 100 µM"
>>> result("COC(=O)CCC1=CCC2(SC)C(=O)Nc3cccc1c32 (stereo not given)")
"> 100 µM"
>>> result("O=C(CNc1ccc(Cl)cc1)Nc1ccc(-c2nc3ccccc3s2)cc1")
"11.7 µM"
>>> result("CN=c1nc2sc3c(c2c(NC(=S)NC)s1)CCCC3")
"> 100 µM"

====

Test system: CCRF-CEM leukemia
EXPERIMENTAL_PROTOCOL: NCI tumour cell line growth inhibition, 48 h; in the data active means GI50 below about 0.43 µM; inactive means the rest
Labels: class 1 = active, class 0 = inactive

>>> qualitative_label("CCN(CC)CCOc1ccc(-c2nc3cc(Cl)ccc3s2)cc1")
"class 0"
>>> qualitative_label("Cn1cc(CO)c2c1C(=O)C=C(N1CC1)C2=O")
"class 1"
>>> qualitative_label("Cc1ccc(C)c(C2=C(c3cn(C)c4ccccc34)C(=O)NC2=O)c1")
"class 0"
>>> qualitative_label("COc1ccc(/C=C(/C(=O)N2CCN(c3ccccc3)CC2)c2cc(OC)c(OC)c(OC)c2)cc1O")
"class 1"
>>> qualitative_label("COc1cc2nc(-c3ccc(Cl)cc3)cc(OCCCN3CCCCC3)c2cc1OC")
"class 0"

====

Tested on: MDA-N
EXPERIMENTAL_PROTOCOL: NCI tumour cell line growth inhibition, 48 h
MEASUREMENT_LABEL: TGI

>>> result("COc1cccc2c1OC(c1ccc(Cl)cc1)C([N+](=O)[O-])=C2 (centres undefined)")
"3.45 µM"
>>> result("Cc1cc(C)n2nc3nc(N)c(C#N)c(-c4ccccc4)c3c2n1")
"> 100 µM"
>>> result("Nc1ccc(-c2nc3cc(F)ccc3s2)cc1Cl")
"> 100 µM"
>>> result("C=C1C(=O)OC2CCN3CC=C(COC(=O)C(C)(O)C4(CO4)C1C)C23 (centres undefined)")
"> 100 µM"

====

Tested on: HT29 colon
EXPERIMENTAL_PROTOCOL: NCI tumour cell line growth inhibition, 48 h
Below, each entry is listed with its recorded TGI.
MEASUREMENT_LABEL: TGI

>>> result("N#Cc1nc(Nc2cccc3ccccc23)sc1N")
"> 100 µM"
>>> result("O=C(CNc1ccc(Cl)cc1)Nc1ccc(-c2nc3ccccc3s2)cc1")
"11.4 µM"
>>> result("CCN(CC)CCC(=O)/C=C/c1ccccc1")
"12.4 µM"
>>> result("COc1ccc(C(=O)C(c2ccc(OC)cc2)C2(O)C(=O)Nc3ccc([N+](=O)[O-])cc32)cc1 (stereo unspecified)")
"> 100 µM"
>>> result("CC(C)N(C(=O)C12C3C4C5(C#N)C3C1(C#N)C5C42I)C(C)C (stereo unspecified)")
"> 100 µM"
>>> result("O=c1c2sc(=S)n(-c3ccc(F)cc3)c2ncn1Cc1ccc(F)cc1F")
"> 100 µM"
>>> result("CN(CC(=O)O)c1ncc2c(n1)-c1ccccc1SC2")
"> 100 µM"
>>> result("OC[C@H]1C[C@](O)(c2ccc(Cl)cc2)[C@@H](c2ccc(Cl)cc2)O1")
"50.1 µM"
>>> result("OCCCCCCCCCCCOc1ccc(C2OCC3(CO2)COC(c2ccc(OCCCCCCCCCCCO)cc2)OC3)cc1 (stereo unspecified)")
"> 50 µM"
>>> result("CCCCCCCCCCCCCC1=NC(C)(C)CN1C(C)C")
"1.47 µM"
>>> result("CCCCS(=O)CCC(N)P(=O)(O)O (stereo unspecified)")
"> 100 µM"

====

Tested on: UO-31 renal
EXPERIMENTAL_PROTOCOL: NCI tumour cell line growth inhibition, 48 h; in the data active = GI50 below about 0.43 µM; inactive = the rest
Labels: active, inactive

>>> qualitative_label("CN(C)CCCNC(=O)c1cc2[nH]c3c(cnc4ccc([N+](=O)[O-])cc43)c(=O)c2n1C")
"inactive"
>>> qualitative_label("C=C1CC[C@@H]2[C@](C)(COC(C)=O)[C@H](OC(C)=O)CC[C@@]2(C)[C@@H]1CC(Sc1ccccc1)C1=CCOC1=O (some centres not stated)")
"inactive"
>>> qualitative_label("N#Cc1c(NN)n(C2OC(CO)C(O)C2O)c2ncnc(N)c12 (configuration not stated)")
"active"
>>> qualitative_label("CCC(C)n1ncn(-c2ccc(N3CCN(c4ccc(OCC5COC(Cn6cncn6)(c6ccc(Cl)cc6Cl)O5)cc4)CC3)cc2)c1=O (configuration not stated)")
"inactive"
>>> qualitative_label("Cc1ccc(C)c(C2=C(c3cn(C)c4ccccc34)C(=O)NC2=O)c1")
"inactive"
>>> qualitative_label("CCCCCCNC(=O)c1cc(NCc2cc(O)ccc2O)ccc1O")
"inactive"
>>> qualitative_label("C=C1C(=O)O[C@@H]2C[C@@H]1CC/C(C)=C/CC/C(C)=C/CC[C@@]2(C)O")
"inactive"
>>> qualitative_label("O=C1/C(=C/c2ccc(Br)cc2)COc2ccc(O)c(O)c21")
"active"
>>> qualitative_label("C=C(CNCc1ccccc1)c1ccc(C(=O)Nc2ccccc2N)cc1")
"inactive"
>>> qualitative_label("O=c1c2sc(=S)n(-c3ccc(F)cc3)c2ncn1Cc1ccc(F)cc1F")
"inactive"
>>> qualitative_label("Cc1cc(I)cc(CN(C)CCCN2CCCCCCC2)c1O")
"inactive"
>>> qualitative_label("[Cl][Hg][c]1cc(Br)cc(Br)c1")
"inactive"

====

System: ACHN renal
EXPERIMENTAL_PROTOCOL: NCI tumour cell line growth inhibition, 48 h; in the data active = GI50 below about 0.43 µM; inactive = the rest
Labels: 1 for active, -1 for inactive

>>> qualitative_label("CCN(CC)CCOc1ccc(-c2nc3cc(Cl)ccc3s2)cc1")
-1
>>> qualitative_label("O=c1c2sc(=S)n(-c3ccc(F)cc3)c2ncn1Cc1ccc(F)cc1F")
-1
>>> qualitative_label("COc1cc2nc(-c3ccc(Cl)cc3)cc(OCCCN3CCCCC3)c2cc1OC")
-1
>>> qualitative_label("C=C1CC[C@@H]2[C@](C)(COC(C)=O)[C@H](OC(C)=O)CC[C@@]2(C)[C@@H]1CC(Sc1ccccc1)C1=CCOC1=O (stereo not given in full)")
-1
>>> qualitative_label("CCCCCCNC(=O)c1cc(NCc2cc(O)ccc2O)ccc1O")
-1
>>> qualitative_label("Cc1ccc(C)c(C2=C(c3cn(C)c4ccccc34)C(=O)NC2=O)c1")
-1
>>> qualitative_label("OC[C@H]1C[C@](O)(c2ccc(Cl)cc2)[C@@H](c2ccc(Cl)cc2)O1")
-1
>>> qualitative_label("O=C1/C(=C/c2ccc(Br)cc2)COc2ccc(O)c(O)c21")
-1
>>> qualitative_label("O=C(Nc1ccc(Cl)cc1F)c1ccccc1O")
-1
>>> qualitative_label("O=C1NC(=O)C(c2cnc3ccccn23)=C1c1cn2c3c(cc(F)cc13)CN(C(=O)N1CCCCC1)CC2")
-1
>>> qualitative_label("Cn1cc(CO)c2c1C(=O)C=C(N1CC1)C2=O")
1
>>> qualitative_label("O=C(CNc1ccc(Cl)cc1)Nc1ccc(-c2nc3ccccc3s2)cc1")
-1
>>> qualitative_label("COc1cc(N(CCC#N)CCC#N)ccc1/C(N=Nc1ccc([N+](=O)[O-])cc1)=N/NC(=O)c1cc(Br)ccc1O")
-1
>>> qualitative_label("N#Cc1c(NN)n(C2OC(CO)C(O)C2O)c2ncnc(N)c12 (stereo not given)")
1
>>> qualitative_label("COc1ccc(CN2C(=O)/C(=C\\C(=O)c3ccc(OCCN4CCCCC4)cc3)c3ccccc32)cc1")
-1
